Ref: patent US6342508B1

Structures can show the parent of a compound that is named as a salt.
experimental-readout: melting point (°C)

The cases that follow already have their melting point on record.
CCCCCCCCCCCCC(C(=O)NO)S(=O)(=O)c1ccc(OC)cc1 (stereo not shown) [Example 11]; 114
COc1ccc(S(=O)(=O)C(Cc2ccccc2)C(=O)NO)cc1 (stereo not shown) [Example 9]; 180

I: CCCCCCC(Sc1ccc(F)cc1)C(=O)NO (stereo not shown) [Example 38]
II: COc1ccc([S+]([O-])C(C(=O)NO)c2ccccc2)cc1 (stereo not shown) [Example 8]
III: COc1ccc(S(=O)(=O)C2(C(=O)NO)CCN(CCc3ccccc3)CC2)cc1 (as salt: HCl) [Example 103]
Task: Falling order of melting point, please. Write out the labels following the order that was asked for.
Output: III, II, I
